Data origin: the nanobody polyreactivity screen of Harvey et al. (2022)

- ASSAY_PROCEDURE: yeast display, Sf9 membrane polyspecificity reagent, FACS + sequencing; frameworks hold sequencing errors

SEQ | polyreactivity (PSR sort gate)
QVQLVESGRGLVQAGGSLRLSCAASGRIFKGYAMGWYRQAPGKERELVAAITTSGGGTYSADSVKGRFTFSRDNAKNTVYLQMNSLKPEDPAVYYCAKTLGSQNYDFDYWGQGTQVTVSS | low polyreactivity
QVQLVESGGGLVQAGGSLRLSCAASGNIFDRNAMGWYRHAPGKQRELVAAISRSGGRTYYADSVKGRFTISRDNAKNTVYLQMISLKPEDTGVYYCATTYGGTYEYDYWGQGTQVTVSS | high polyreactivity
QVQLVESGGGLVQAGGRLRLICAASGSTFVINDMGWYRQAPGKERELVASISWSGGDTYYADSVKGRFTISRDNAKNTVYLQMNSLKPEDTAVYYCNRVSPYGSYDYWGQGTQVTVSS | low polyreactivity
QVQLVESGGGLVQAGGSLRLSCAASGLTFNYYAMGWSRPAPGKERELVAAISSDGRTDYADSVKGRFTISRDNAKNTVYLQMNSLKPEDTAVSYCAASWYRWGKSWRQYDYWGQGTQVTVSL | low polyreactivity
QVQLVESGGGLVQAGGSLSLSCAASGLIFYIYAMGWYRQAPGKEMELVAAITESGGSTYYADSVKGRFTISRDNAKNTVYLQMNSLKPEDTAVYYCAKDFHNYPSFGEDYWGQGTQVTVSS | low polyreactivity
QVQLVESGGGLVQAGGSLRLSCAASGSIFTRNAMGWYRQAPGKERELVASISWRGGSTYYADSVKGRFTISRDNAKNTVYLQMNSLKPEDTAVYYCNRRAYRNGYGFRDGTWEYDYWGQGTQVTVSS | high polyreactivity
QVQLVESGGGLVQAGGSLRLSCADSGRIFRRYAMGWYRQAPGKERELVAAITTSGGSTYYADSVKGRFTISRDNAKNTVYLQMNSLKPEDTAVYYCNARSSVYGHRKGSARIPRYDYWGQGTQVTVSS | high polyreactivity
QVQLVESGGGLVQAGGSLRLSCAASGRILSVYVMGWYRQAPGKERELVAAISRNGGRTYYADSVKGRFTISRDNAKNTVYLQMNSLKPEDTAVYYCAKSQRGTVYSYYYWGQGTQVTVSS | high polyreactivity
QVQLLESGGGLVQAGGSLRLSCAASGSIFRANAMGWYRQAPGKERELVAAITNGGRTNYADSVKGRFTISRDNAKNTVYLQMNSLKPEDTAVYYCAKDIYQHAKRRYDYWGQGTQVTVSS | low polyreactivity
QVQLVESGGGLVQAGGSLRLSCAASGGIFGTYTMGGYRQSPGKEREFVAAIRSSSGRTYYADSVKGRFTISRDNAKNTVYLQMNSLKPEVTAVYYCNAKYYGYRVGKYYPFGYWGQGTQVTVSS | high polyreactivity
QVQLVESGGGLVQAGGSLRLSCAASGIFSYYAMGWSRQAPGKERELVAAISWSGGSTYYADSVKGRFTISRDNAKNTVYLQKNSLKPEDTAVYYCNKAYLTSQPRLGYWGQGTQVTVSS | high polyreactivity

====

- ASSAY_PROCEDURE: yeast display, Sf9 membrane polyspecificity reagent, FACS + sequencing; frameworks hold sequencing errors

SEQ | polyreactivity (PSR sort gate)
QVQLVESGGGLVQAGGSLRLSCAASGFTFRVYAMGWYRQAPGKERELVAAITNSGGNTYYADSVKGRFTISRDNAKNTVYLQMNSLKPEDTAVYYCNRRYRYRFGYWGQGTQVTVSS | high polyreactivity
QVQLVESGGGLVQAGGSLRLICAASGRTFRKYAMGWYRQAPGKERELVAAINRGGTTKYADSVKGRFTISRDNAKNTVYLQMNSLKPEDTAVYYCNAAYGGVFFYAYDYWGQGTQVTVSS | low polyreactivity
QVQLVESGGGLVQAGGSLRLICAASGSIFDFYAMGWYRQAPGKERELVAAISRNGGSTYYADSVKGRFTISRDNAKNTFYLQMNSLKPEDTAVYYCNKTVYVGAKEYDYWGQGTQVTVSS | high polyreactivity
QVQLVESGGGLVQAGGSLRLSCAASGFIFSANDMGGYRQAPGKERELVADIDSSGRTNYADSVKGRFTISRDNAKNTVYLQMNSLNPEDTAVYYCATPPDDKGGGYLGYDYWGQGTEVTVSS | low polyreactivity
HVRLQESVGGLVQAGGSLRQSCAASGAISPYYDMGWYRLAPGKEREFVASIAHGGTTYYADSVKGRFTTSRDNAKNTVYLQMNSLKPEDTAVYYCAVAYDVWHSHIYRGQGTQVTVSS | high polyreactivity
QVQLVESGGCLVQAGGSLPLSCAASGIIFAQYVMGWYIQATGKESELVAAIRTSGGRTYYADSVKGRFTISRDNSKNTVYLQMNSLKPEDTAVYYCAAYGKPTFRSVDYWGQGTQVTVSS | high polyreactivity
QVQLVESGGGLVQAGGSLRLSCAASGSLFGVNAMGWYRQAPGKERELVASISLSDDRTYYADSVKGRFTISRDIAKNTDYLQMNSLKPEDTAVYYCARRLLWYWDVDPSLAEYDYWGQGTQVTVSS | low polyreactivity
QVQLVESGGGLVQAGGSLRFSCAASGRIFYANAMGWYRQAPGKERELVAAISSGGSTYYADSVKGRFTISRDNAKNTVFLQMNSLKPEDTAVYYCAVYTHKKVRPEYVYWGQGTQVTVSS | low polyreactivity
QVQLVESGGGLVQAGGSLRLSCAASGYIFPEYVMGWYRQAPGKERELVAVITWDGTSTYADSVKGRFTISRDNAKNTVYLQMNSLKPEDTAVYYCAADTNYYVDTAGYGDGLDSWGQGTQVTVSS | low polyreactivity
QVQLVESGGGLVQGGGSLRLSCAASGSTIPSYAMGCYRQAPGKERELVASITYSDGTTRYADSVKGRFTISRDHAKNPVYLQMNSLIPEDTELYSCNAVYYREGMDYWGQGTQVTVSS | low polyreactivity
QVQLVESGGGLVQAGGSLRLSCAASGITFYHNAMGWYRPAPRKERELVATISRRGGRTYYADSVKGRFTISRDNAKNTVYLQMNSLKPEDTAVYYCAAAQKQSRYDYWGQGTQVTVSS | high polyreactivity
